Can you tell me IC50 for the items I'm about to list?
target: PRMT5 (Homo sapiens); construct: purchased Viva (custom protein); experiment: PRMT5 IC50 assay in the presence of MTA as cofactor; format: biochemical; conditions: PRMT5, MTA as cofactor
Sequence (O14744 whole entry): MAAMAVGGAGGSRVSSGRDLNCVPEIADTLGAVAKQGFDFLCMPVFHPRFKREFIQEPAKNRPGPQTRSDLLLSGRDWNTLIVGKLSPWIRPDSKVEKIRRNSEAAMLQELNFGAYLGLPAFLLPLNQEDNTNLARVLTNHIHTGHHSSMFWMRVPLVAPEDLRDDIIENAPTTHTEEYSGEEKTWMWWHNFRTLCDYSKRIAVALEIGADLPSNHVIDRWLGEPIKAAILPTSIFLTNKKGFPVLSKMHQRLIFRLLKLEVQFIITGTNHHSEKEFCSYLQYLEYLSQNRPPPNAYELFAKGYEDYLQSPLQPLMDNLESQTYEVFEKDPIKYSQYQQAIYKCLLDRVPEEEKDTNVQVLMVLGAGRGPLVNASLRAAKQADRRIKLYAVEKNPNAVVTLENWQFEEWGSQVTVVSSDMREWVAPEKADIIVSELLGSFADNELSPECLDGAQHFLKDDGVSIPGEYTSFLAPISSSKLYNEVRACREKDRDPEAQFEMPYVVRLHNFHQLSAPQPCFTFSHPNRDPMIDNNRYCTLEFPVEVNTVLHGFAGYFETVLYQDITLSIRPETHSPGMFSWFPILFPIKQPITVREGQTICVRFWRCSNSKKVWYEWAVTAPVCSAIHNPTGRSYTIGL
Sequence (Q9BQA1 whole entry partner): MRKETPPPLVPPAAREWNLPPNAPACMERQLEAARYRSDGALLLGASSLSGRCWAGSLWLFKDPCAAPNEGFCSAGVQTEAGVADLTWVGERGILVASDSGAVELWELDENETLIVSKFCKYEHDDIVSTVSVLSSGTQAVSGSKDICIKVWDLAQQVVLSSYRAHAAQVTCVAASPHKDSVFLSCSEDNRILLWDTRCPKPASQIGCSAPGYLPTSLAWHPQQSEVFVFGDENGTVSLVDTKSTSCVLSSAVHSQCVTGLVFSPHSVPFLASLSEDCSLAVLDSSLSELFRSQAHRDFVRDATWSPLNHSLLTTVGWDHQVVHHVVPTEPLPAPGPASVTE

Ask: Tell me the measured IC50 of Cc1ncoc1COc1ccc2c(c1C)CCN(C[C@@H](O)CNC(=O)c1cc(NC3CCC3)nc(N3CCCCC3)c1)C2 , please.
Result: 50 to 500 nM

Provide IC50 values for the following items, in order.
1. O=C(NC[C@H](O)CN1CCc2c(ccc(OCc3cn[nH]c3)c2Cl)C1)c1ccnc(NC2CCC2)c1
2. Cc1ncoc1COc1ccc2c(c1C)CCN(C[C@@H](O)CNC(=O)c1cc(NC3CCC3)nc(N3CCN(C(=O)C4CC4)CC3)c1)C2
3. CCC(=O)N1CC(Nc2cc(C(=O)NC[C@H](O)CN3CCc4c(ccc(OCc5cnco5)c4C)C3)ncn2)C1
4. Cc1ncoc1COc1ccc2c(c1C)CCN(C[C@@H](O)CNC(=O)c1cc(NC3COC3)nc(N3CCN(C(C)C)CC3)n1)C2
5. Cc1ncoc1COc1ccc2c(c1Cl)CCN(C[C@@H](O)CNC(=O)c1cccc(NC3CCC3)c1)C2
6. O=C(NC[C@H](O)CN1CCc2cc(OCc3cnco3)ccc2C1)c1cncc(NC2CCC2)c1
7. COCCN(C)c1cc(C(=O)NC[C@H](O)CN2CCc3c(ccc(OCc4cnco4)c3Cl)C2)cc(NC2CCC2)n1
8. O=C(NC[C@H](O)CN1CCc2c(ccc(OCc3cnco3)c2Cl)C1)c1cc(NC2CCC2)nc(N2CCOCC2)c1

Result:
1. 500 to 5000 nM
2. 50 to 500 nM
3. 50 to 500 nM
4. 50 to 500 nM
5. 50 to 500 nM
6. 50 to 500 nM
7. 50 to 500 nM
8. 50 to 500 nM

Could I get IC50 for every one of these entries?
1. CC(=O)N1[C@@H]2CC[C@H]1C[C@@H](Nc1cc(C(=O)NC[C@H](O)CN3CCc4cc(OCc5ocnc5C)ccc4C3)ncn1)C2
2. COCCN(C)c1cc(NC2CCN(C(C)=O)CC2)cc(C(=O)NC[C@H](O)CN2CCc3cc(OCc4ocnc4C)ccc3C2)c1 (single isomer, unassigned)
3. CC(C)(C)N1CCN(c2cc(C(=O)NC[C@H](O)CN3CCc4c(ccc(OCc5cnco5)c4Cl)C3)cc(NC3CCC3)n2)CC1
4. CC(=O)N1CC(Nc2cc(C(=O)NC[C@H](O)CN3CCc4c(ccc(OCc5cnco5)c4Cl)C3)nc(N3CCOCC3)n2)C1

Result:
["50 to 500 nM", "500 to 5000 nM", "50 to 500 nM", "50 to 500 nM"]

* * *

Please go through the items and note down their pIC50.
target: PRMT5 (Homo sapiens); construct: purchased Viva (custom protein); assay: PRMT5 IC50 assay in the presence of SAM as cofactor; format: biochemical
pIC50: −log10 of the molar value.

Some molecules with recorded pIC50:
Ask: # get_value(readout='pIC50', item= Cc1ncoc1COc1ccc2c(c1)CCN(C[C@@H](O)CNC(=O)c1cc(NC3CCC3)ncc1F)C2 [Compound 614] )
Result: 6.30 to 7.30

Ask: Now try O=C(NC[C@H](O)CN1CCc2cc(OCc3cnco3)ccc2C1)c1ccnc(NC2CCCC2)c1 [Compound 407] .
Result: 6.30 to 7.30

Ask: Same question, CC1(CCC(=O)N2CCC(Nc3cc(C(=O)NC[C@H](O)CN4CCc5cc(OCc6cnco6)ccc5C4)ncn3)CC2)N=N1 [Compound 363] this time
Result: 6.30 to 7.30

Ask: Record: CCCN(C)c1cc(C(=O)NC[C@H](O)CN2CCc3c(ccc(OCc4cnco4)c3Cl)C2)cc(NC2CCC2)n1 [Compound 453]
Result: 5.30 to 6.30

Ask: Entry Cc1c(OCc2cnco2)ccc2c1CCN(C[C@@H](O)CNC(=O)c1ccnc(NC3CC4(CC4)C3)c1)C2 [Compound 472] please
Result: 6.30 to 7.30

// each listed molecule needs a value for pIC50
1. Cc1c(OCc2cnco2)ccc2c1CCN(C[C@@H](O)CNC(=O)c1ccnc(NC3CC4CCCC43)c1)C2 (stereo partly shown) [Compound 486]
2. CCC(=O)N1CC(Nc2cc(C(=O)NC[C@H](O)CN3CCc4cc(OCc5cnco5)ccc4C3)ccn2)C1 [Compound 469]
3. Cc1ncoc1COc1ccc2c(c1C)CCN(C[C@@H](O)CNC(=O)c1cc(CC(C)C)nc(NC3CCC3)c1)C2 [Compound 504]
4. O=C(NC[C@H](O)CN1CCc2c(ccc(OCc3cnco3)c2Cl)C1)c1ccc(OC2CCN(Cc3ccccc3)CC2)cc1 [Compound 330]
5. CC(=O)N1CCC(Nc2cc(C(=O)NC[C@H](O)CN3CCc4c(ccc(OCc5ocnc5C)c4Cl)C3)ncn2)CC1 [Compound 256]
6. Cc1c(OCc2cnco2)ccc2c1CCN(C[C@@H](O)CNC(=O)c1ccnc(NC3CCN(S(C)(=O)=O)CC3)c1)C2 [Compound 386]

Result:
6.30 to 7.30
6.30 to 7.30
6.30 to 7.30
6.30 to 7.30
6.30 to 7.30
6.30 to 7.30

List pIC50 for every entry below, keeping the order given.
1. CC(=O)N1CC(Nc2cc(C(=O)NCC(O)CN3CCc4nc(OCc5ocnc5C)ccc4C3)nc(N3CCCCC3)n2)C1 (stereo not shown) [Compound 650]
2. CCN(C)c1cc(C(=O)NC[C@H](O)CN2CCc3c(ccc(OCc4cnco4)c3Cl)C2)cc(NC2CCC2)n1 [Compound 445]
3. CC(C)CC(=O)N1CCC(Nc2cc(C(=O)NC[C@H](O)CN3CCc4cc(OCc5cnco5)ccc4C3)ccn2)CC1 [Compound 446]
4. Cc1c(OCc2cnco2)ccc2c1CCN(C[C@@H](O)CNC(=O)c1ccnc(NC34CC(C3)C4)c1)C2 [Compound 514]
5. Cc1ncoc1COc1ccc2c(c1)CCN(C[C@@H](O)CNC(=O)c1ccc(OC3CCN(Cc4ccccc4)CC3)cc1)C2 [Compound 392]
6. COc1cc(C(=O)NC[C@H](O)CN2CCc3cc(OCc4ocnc4C)ccc3C2)cc(NC2CCN(C(C)=O)CC2)n1 [Compound 599]
7. Cc1ncoc1COc1ccc2c(c1)CCN(C[C@@H](O)CNC(=O)c1cncc(NC3CCC3)c1)C2 [Compound 271]
8. CO[C@H]1C[C@H](Nc2cc(C(=O)NC[C@H](O)CN3CCc4c(ccc(OCc5cnco5)c4C)C3)ccn2)C1 [Compound 591]

Result:
1. 6.30 to 7.30
2. 5.30 to 6.30
3. 6.30 to 7.30
4. 5.30 to 6.30
5. 6.30 to 7.30
6. 6.30 to 7.30
7. 6.30 to 7.30
8. 6.30 to 7.30

Hello, I would appreciate it if you could give pIC50 for each entry below.
1. Cc1c(OCc2cnco2)ccc2c1CCN(C[C@@H](O)CNC(=O)c1cc(NC3CCC3)ccn1)C2 [Compound 515]
2. Cc1ncoc1COc1cc2c(cc1F)CN(C[C@@H](O)CNC(=O)c1ccc3c(c1)CCN(C(=O)c1ccc(Br)cc1)C3)CC2 [Compound 578]
3. Cc1c(OCc2cnco2)ccc2c1CCN(C[C@@H](O)CNC(=O)c1ccnc(NC3CCN(C(=O)C(C)C)CC3)c1)C2 [Compound 427]
4. O=C(NC[C@H](O)CN1CCc2cc(OCc3cnco3)ccc2C1)c1cc(NC2CCC2)ccn1 [Compound 509]
5. O=C(NC[C@H](O)CN1CCc2c(ccc(OCc3cnco3)c2Br)C1)c1cccc(NC2CCC2)c1 [Compound 348]

Result:
["5.30 to 6.30", "6.30 to 7.30", "6.30 to 7.30", "5.30 to 6.30", "5.30 to 6.30"]

Ask: Item under review: O=C(NC[C@H](O)CN1CCc2c(ccc(OCc3cnco3)c2Br)C1)c1cc(NC2CCC2)ncn1 [Compound 361] . Reported pIC50?
Result: 5.30 to 6.30

* * *

target: PRMT5 (Homo sapiens); construct: purchased Viva (custom protein); experiment: PRMT5 IC50 assay in the presence of SAM as cofactor; type: biochemical
Hi there, I'd appreciate the recorded IC50 for every entry that follows.

Ask: // IC50 lookup, key: CCC(=O)N1CC(Nc2cc(C(=O)NC[C@H](O)CN3CCc4c(ccc(OCc5cnco5)c4C)C3)ncn2)C1
Result: 50 to 500 nM

Quick batch: IC50 for everything below.
1. O=C(NC[C@H](O)CN1CCc2cc(OCc3cnco3)ccc2C1)c1cc(NC2COC2)nc(N2CCOCC2)n1
2. CC(=O)N1CCC(Nc2cc(C(=O)NC[C@H](O)CN3CCc4cc(OCc5cnco5)ccc4C3)ccn2)CC1
3. O=C(NC[C@H](O)CN1CCc2c(ccc(OCc3cnco3)c2Cl)C1)c1cc(NC2CCC2)ncc1F
4. CC(=O)N1CCN(c2cc(C(=O)NC[C@H](O)CN3CCc4c(ccc(OCc5cnco5)c4Cl)C3)cc(NC3CCC3)n2)CC1

Result:
50 to 500 nM
50 to 500 nM
500 to 5000 nM
50 to 500 nM

Hi, could you look up IC50 for each item in my list?
1. Cc1ncoc1COc1ccc2c(c1C)CCN(C[C@@H](O)CNC(=O)c1cc(NC3CCC3)nc(N3CCN(C(=O)C4CC4)CC3)c1)C2
2. Cc1c(OCc2cnco2)ccc2c1CCN(C[C@@H](O)CNC(=O)c1ccnc(NC3CCC3C3CCC3)c1)C2 (stereo partly shown)

Result:
50 to 500 nM
500 to 5000 nM

Just for reference, patent US11986471B2 is where these values come from.
